Reference for the values: patent US20250277029A1

TGT: human cannabinoid receptor 1 (huCB1), full length, expressed on cells (human, UniProt P21554 1-472)
Sequence (P21554 whole entry): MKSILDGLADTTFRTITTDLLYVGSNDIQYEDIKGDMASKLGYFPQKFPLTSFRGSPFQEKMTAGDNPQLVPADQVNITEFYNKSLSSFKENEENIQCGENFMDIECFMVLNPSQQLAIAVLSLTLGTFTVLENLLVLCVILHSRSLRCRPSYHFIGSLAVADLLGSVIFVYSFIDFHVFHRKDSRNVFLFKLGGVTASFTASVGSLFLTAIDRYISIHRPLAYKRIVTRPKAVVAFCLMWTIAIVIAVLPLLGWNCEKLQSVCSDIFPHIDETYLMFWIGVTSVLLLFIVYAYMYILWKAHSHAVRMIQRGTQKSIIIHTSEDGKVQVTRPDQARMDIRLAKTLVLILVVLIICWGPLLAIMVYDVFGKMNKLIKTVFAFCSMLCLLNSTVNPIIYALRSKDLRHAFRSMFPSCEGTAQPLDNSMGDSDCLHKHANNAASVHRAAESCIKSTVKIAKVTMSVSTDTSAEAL
PROTOCOL NOTES: cell-based or functional assay
Provide the recorded n = 2 IC50, -fold vs Rimo for the entries that follow.
Numbers only, in fold vs Rimonabant.

>  <BINDER>
LIBC527919-1 (antibody, V domains shown, Expressed as IgG1 SEFL2 mAb) VH: QVQLQESGPGLVKPSQTLSLTCTVSGGSIRRGGDYWAWIRQHPGKGLEWIGHVYQTGSTAYNPNFKDRATISVNTYKNQFSLKLSSVTAADTAVYYCARNYDALSGYSYYYYGMDVWGQGTTVTVSS VL: DIQLTQSPSSLSASVGDRVTITCRASQSIISYLNWYQQKPGKAPKLLIYAASSLRSGVPSRFSGSGSGTDFTLTISSLQPEDFATYYCQQYSNYPLTFGGGTRVEIKR

>  <n = 2 IC50, -fold vs Rimo (fold vs Rimonabant)>
1

$$$$
>  <BINDER>
LIBC523760-1 (antibody, V domains shown) VH: QVQLQESGPGLVKPSQTLSLTCTVSGGSIRRGGDYWSWIRQHPGKGLEWIGHVYQTGSTKYNPKFKGRATISVNTYKNQFSLKLSSVTAADTAVYYCARDYDILTGYSYYYYGMDVWGQGTTVTVSS VL: DIVMTQSPLSLPVTPGEPASISCRSSQSLLTSSGANYVDWYLQKPGQSPQLLIYLGSNRASGVPDRFSGSGSGTDFTLKISRVEAEDVGVYYCRQAVGTPRTFGQGTKVEIKR

>  <n = 2 IC50, -fold vs Rimo (fold vs Rimonabant)>
1.36

$$$$
>  <BINDER>
LIBC527968-1 (antibody, V domains shown) VH: QVQLQESGPGLVKPSQTLSLTCTVSGGSIRRGGDYWSWIRQHPGKGLEWIGHIYQSGSTKYNPSFKDRATISVNTYKNQFSLKLSSVTAADTAVYYCARDYDILTGYSYYYYGMDVWGQGTTVTVSS VL: DIQLTQSPSTLSASVGDRVTITCRASQSISNYLNWYQQKPGKAPKLLIYAASSLHSGVPSRFSGSGSGTDFTLTISSLQPEDFASYYCQQYQSYPLTFGQGTKVEIKR

>  <n = 2 IC50, -fold vs Rimo (fold vs Rimonabant)>
1.09

$$$$

Here are 3 binders. What values of n = 2 IC50, -fold vs Rimo were reported for them?
1. LIBC527997-1 (antibody, V domains shown, Expressed as IgG1 SEFL2 mAb) VH: QVQLQESGPGLVKPSQTLSLTCTVSGGSIRRGGDYWAWIRQHPGKGLEWIGHIYQTGSTNYNPRFKGRATISVNTYKNQFSLKLSSVTAADTAVYYCARNYDTLTGYSYYYYGMDVWGQGTTVTVSS VL: DIQMTQSPSSLSASVGDRVTITCRASQSISNYLNWYQQKPGKAPKLLIYAASSLHSGVPSRFSGSGSGTDFTLTISSLQPEDFASYYCQQYQSYPLTFGQGTKVEIKR
2. LIBC527827-1 (antibody, V domains shown) VH: QVQLQESGPGLVKPSQTLSLTCTVSGGSIRRGGDYWGWIRQHPGKGLEWIGHVYQSGQTAYNPKFENRATISVKTYKNQFSLKLSSVTAADTAVYYCARNYDTLTGHSYYYYGMDVWGQGTTVTVSS VL: DIQMTQSPSTLSASVGDRVTITCRASQSISNYLNWYQQKPGKAPKLLIYAASSLHSGVPSRFSGSGSGTDFTLTISSLQPEDFASYYCQQYQSYPLTFGQGTKVEIKR
3. LIBC523862-1 (antibody, V domains shown) VH: QVQLQESGPGLVKPSQTLSLTCTVSGGSIRRGGDYWSWIRQHPGKGLEWIGHIYQTGSTAYNPSLKGRATISVNTYKNQFSLKLSSVTAADTAVYYCARDYDILTGYSYYYYGMDVWGQGTTVTVSS VL: DIVMTQSPLSLPVTPGEPASISCRSSQSLLHSTGANYVDWYLQKPGQSPQLLIYLGSNRASGVPDRFSGSGSGTDFTLKISRVEAEDVGVYYCRQAIALPRTFGQGTKVEIKR

[0.88, 8.54, 1.91]

Batch lookup, n = 2 IC50, -fold vs Rimo per entry.
1. LIBC527912-1 (antibody, V domains shown) VH: QVQLQESGPGLVKPSQTLSLTCTVSGGSIRRGGDYWSWIRQHPGKGLEWIGYIYQTGQTKYNPNFEGRATISVNTYKNQFSLKLSSVTAADTAVYYCARDYDILTGYSYYYYGMDVWGQGTTVTVSS VL: DIQLTQSPSSLSASVGDRVTITCRASQSISSYLNWYQQKPGKAPKLLIYAASSLRSGVPSRFSGSGSGTDFTLTISSLQPEDFATYYCQQYSNYPLTFGGGTRVEIKR
2. LIBC528131-1 (antibody, V domains shown) VH: QVQLQESGPGLVKPSQTLSLTCTVSGGSIRRGGDYWSWIRQHPGKGLEWIGHIYQTGQTAYNPNLEGRATISVNTYKNQFSLKLSSVTAADTAVYYCARDYDILTGYSYYYYGMDVWGQGTTVTVSS VL: EIVLTQSPATLSLSPGERATLSCRASQSVSSYLGWYQQKPGQAPRLLIYGASSRATGIPDRFSGSGSGTDFTLTISRLEPEDFAVYYCQQYGSSPRTFGQGTKVEIKR
3. LIBC527984-1 (antibody, V domains shown) VH: QVQLQESGPGLVKPSQTLSLTCTVSGGSIRRGGDYWSWIRQHPGKGLEWIGHIYQTGKTNYNPNFKSRATISVNTYKNQFSLKLSSVTAADTAVYYCARDYDILTGYSYYYYGMDVWGQGTTVTVSS VL: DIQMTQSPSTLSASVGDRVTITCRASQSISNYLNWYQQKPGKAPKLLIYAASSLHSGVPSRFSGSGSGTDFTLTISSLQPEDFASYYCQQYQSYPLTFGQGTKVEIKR
4. LIBC523857-1 (antibody, V domains shown) VH: QVQLQESGPGLVKPSQTLSLTCTVSGGSIRRGGDYWSWIRQHPGKGLEWIGHIYQTGQTAYNPRLEGRATISVNTYKNQFSLKLSSVTAADTAVYYCARDYDILTGYSYYYYGMDVWGQGTTVTVSS VL: DIVMTQSPLSLPVTPGEPASISCRSSQSLLSSTGANYLDWYLQKPGQSPQLLIYLGSNRASGVPDRFSGSGSGTDFTLKISRVEAEDVGVYYCRQAVELPRTFGQGTKVEIKR

1.11
1.02
0.71
1.39
